biological target: human F508del-CFTR (Homo sapiens, UniProt P13569, DEL508-508); experiment: F508del-CFTR cell surface expression (corrector activity), DiscoveRx ß-galactosidase complementation chemiluminescence assay in recombinant U2OS cell line; settings: EC50, F508del-CFTR cell surface expression, U2OS cells, 16h compound incubation; geomean of several measurements
Sequence (P13569 with tags, fused parts or gaps DEL508-508): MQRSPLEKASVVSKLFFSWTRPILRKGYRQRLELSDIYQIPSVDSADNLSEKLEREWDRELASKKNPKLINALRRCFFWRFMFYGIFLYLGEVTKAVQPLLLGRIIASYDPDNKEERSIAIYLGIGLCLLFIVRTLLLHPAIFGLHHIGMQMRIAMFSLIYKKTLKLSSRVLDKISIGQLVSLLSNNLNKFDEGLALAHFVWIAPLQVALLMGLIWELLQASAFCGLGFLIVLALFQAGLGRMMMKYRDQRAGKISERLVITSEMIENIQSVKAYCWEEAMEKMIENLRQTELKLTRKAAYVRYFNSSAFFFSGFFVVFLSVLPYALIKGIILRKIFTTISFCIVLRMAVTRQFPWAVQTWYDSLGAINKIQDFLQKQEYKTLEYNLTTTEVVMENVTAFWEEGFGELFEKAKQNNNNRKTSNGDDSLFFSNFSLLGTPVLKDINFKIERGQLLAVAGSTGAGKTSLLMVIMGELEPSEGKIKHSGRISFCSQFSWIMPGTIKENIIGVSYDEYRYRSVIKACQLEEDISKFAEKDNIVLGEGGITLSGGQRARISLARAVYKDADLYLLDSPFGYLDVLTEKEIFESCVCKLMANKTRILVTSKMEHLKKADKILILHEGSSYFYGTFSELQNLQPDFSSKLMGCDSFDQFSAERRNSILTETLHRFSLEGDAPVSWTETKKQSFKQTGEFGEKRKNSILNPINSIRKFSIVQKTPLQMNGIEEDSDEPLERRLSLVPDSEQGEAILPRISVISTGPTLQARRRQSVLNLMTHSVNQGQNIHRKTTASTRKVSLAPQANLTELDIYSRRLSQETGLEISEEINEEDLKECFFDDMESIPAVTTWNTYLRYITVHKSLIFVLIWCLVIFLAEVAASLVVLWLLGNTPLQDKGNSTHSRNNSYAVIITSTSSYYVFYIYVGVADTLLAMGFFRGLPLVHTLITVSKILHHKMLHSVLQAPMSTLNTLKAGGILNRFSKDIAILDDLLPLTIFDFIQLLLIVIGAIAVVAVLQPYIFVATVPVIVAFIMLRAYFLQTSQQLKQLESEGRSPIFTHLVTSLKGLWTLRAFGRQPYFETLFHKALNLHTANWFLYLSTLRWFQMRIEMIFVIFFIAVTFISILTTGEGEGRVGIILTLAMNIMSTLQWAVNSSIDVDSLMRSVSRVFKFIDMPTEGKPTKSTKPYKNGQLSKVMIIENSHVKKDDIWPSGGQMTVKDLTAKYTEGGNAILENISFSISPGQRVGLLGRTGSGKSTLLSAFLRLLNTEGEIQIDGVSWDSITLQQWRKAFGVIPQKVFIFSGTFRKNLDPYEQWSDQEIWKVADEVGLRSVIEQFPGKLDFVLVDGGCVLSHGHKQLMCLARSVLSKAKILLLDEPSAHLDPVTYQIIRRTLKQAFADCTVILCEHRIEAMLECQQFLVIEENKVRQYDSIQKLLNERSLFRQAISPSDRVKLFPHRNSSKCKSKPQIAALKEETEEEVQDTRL

ENTRY_SMILES	UNIT_SYMBOL	EC50
CC(C)C[C@H]1C(=O)N(C)[C@H](Cc2nc(C(F)(F)F)no2)C(=O)N[C@H](Cc2ccccc2)COc2cnc3ccc(F)cc3c2C(=O)N[C@H](C(=O)NCCc2noc(C3CC3)n2)CC(=O)N1C	nM	19
C#Cc1nn(CCNC(=O)[C@@H]2CC(=O)N(C)[C@@H](CC(C)C)C(=O)N3CCCC[C@@H]3C(=O)N[C@H](Cc3ccccc3)COc3cc(C)nc(OC)c3C(=O)N2)nc1C	nM	240
COc1cc2c(c(OC)n1)C(=O)N[C@H](C(=O)NCCc1cc(C)no1)CC(=O)N(C)[C@@H](CC(C)C)C(=O)N1CCCC[C@@H]1C(=O)N[C@H](Cc1ccccc1)CO2	nM	358

---

target: human F508del-CFTR (Homo sapiens, UniProt P13569, DEL508-508); experiment: F508del-CFTR cell surface expression (corrector activity), DiscoveRx ß-galactosidase complementation chemiluminescence assay in recombinant U2OS cell line; details: U2OS, in relation to Emax of corrector lumacaftor (=100%); arithmetic mean values

ENTRY_SMILES	Emax, %
CC(C)C[C@H]1C(=O)N(C)C2(CCC2)C(=O)N[C@H](Cc2ccccc2)COc2cnc3ccc(F)cc3c2C(=O)N[C@H](C(=O)NCCc2cc(C3CC3)no2)CC(=O)N1C	390
COc1cccc(CCNC(=O)[C@@H]2CC(=O)N(C)[C@@H](CC(C)C)C(=O)N3CCOC[C@H]3C(=O)N[C@H](Cc3ccccc3)COc3cnc4ccccc4c3C(=O)N2)c1	129
COc1noc(CCNC(=O)[C@@H]2CC(=O)N(C)[C@@H](CC(C)C)C(=O)N3CCCC[C@@H]3C(=O)N[C@H](Cc3ccccc3)COc3ccnc(OC)c3C(=O)N2)c1F	390

---

molecular target: human F508del-CFTR (Homo sapiens, UniProt P13569, DEL508-508); assay: F508del-CFTR cell surface expression (corrector activity), DiscoveRx ß-galactosidase complementation chemiluminescence assay in recombinant U2OS cell line; conditions: U2OS, in relation to the Emax of the corrector lumacaftor (=100%); U2OS cells, 16h compound incubation; arithmetic mean;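 also: U2OS cells co-expressing ProLink-tagged F508del-CFTR and a membrane-anchored enzyme acceptor, where more surface CFTR restores β-galactosidase activity measured by chemiluminescence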
Record Yes whenever Emax is at 400% or higher; record No when lower.

ENTRY_SMILES	DISCRETE_LABEL
Cc1cc2c3c(ccc2cn1)OC[C@@H](Cc1ccccc1)NC(=O)[C@@H](C)N(C)C(=O)[C@H](CC(C)C)N(C)C(=O)C[C@@H](C(=O)NCCc1cc(C)no1)NC3=O	No
COc1nccc2c1C(=O)N[C@H](C(=O)NCCc1noc(C3CC3)n1)CC(=O)N(C)[C@@H](CC(C)C)C(=O)N(C)[C@H](CCc1nc(C3CC3)no1)C(=O)N[C@H](Cc1ccccc1)CO2	No
COc1noc(CCNC(=O)[C@@H]2CC(=O)N(C)[C@@H](CC(C)C)C(=O)N(C)[C@H](CC(F)(F)F)C(=O)N[C@H](Cc3ccccc3)COc3cc(C)c4ncccc4c3C(=O)N2)n1	Yes
COc1noc(CCNC(=O)[C@@H]2CC(=O)N(C)[C@@H](CC(C)C)C(=O)N(C)[C@H](Cc3noc(C(C)(C)C)n3)C(=O)N[C@H](Cc3ccccc3)COc3ccc4ncc(F)cc4c3C(=O)N2)n1	Yes
COc1nc(C)cc2c1C(=O)N[C@H](C(=O)NCCn1nnc(C3CC3)n1)CC(=O)N(C)[C@@H](CC(C)C)C(=O)N(C)[C@H](Cc1nc(C(F)(F)F)no1)C(=O)N[C@H](Cc1ccccc1)CO2	Yes
CCOCC[C@@H]1C(=O)N[C@H](Cc2ccccc2)COc2ccc3ncc(F)cc3c2C(=O)N[C@H](C(=O)NCCc2nc(C3CC3)no2)CC(=O)N(C)[C@@H](CC(C)C)C(=O)N1C	No
COc1cc(CCNC(=O)[C@@H]2CC(=O)N(C)[C@@H](CC(C)C)C(=O)N(C)[C@H](CC(F)F)C(=O)N[C@H](Cc3ccccc3)COc3ccc4cnc(C)cc4c3C(=O)N2)on1	Yes
CC(C)C[C@H]1C(=O)N(C)[C@H](Cc2nc(C(F)(F)F)no2)C(=O)N[C@H](Cc2ccccc2)COc2ccc3ncc(F)cc3c2C(=O)N[C@H](C(=O)NCCn2nc3ccccc3n2)CC(=O)N1C	Yes
COc1cc(CCNC(=O)[C@@H]2CC(=O)N(C)[C@@H](CC(C)C)C(=O)N(C)[C@H](Cc3nc(C(F)(F)F)no3)C(=O)N[C@H](Cc3ccccc3)COc3ccnc(OC)c3C(=O)N2)on1	Yes
